src = patent US20220226480A1

- assay procedure: Particle size and polydispersity of LNP containing pro-drug (dynamic light scattering)
- Type: physicochemical
- condition label: LNP; pro-drug concentration 10 %
readout kind: Size (nm)

Below, 3 molecules whose answers are already recorded.
molecule: CCCCCC[C@H](C/C=C\CCCCCCCCOC(=O)CCC(=O)OCC(=O)[C@@]1(O)[C@H](C)C[C@H]2[C@@H]3CCC4=CC(=O)C=C[C@]4(C)[C@@]3(F)[C@@H](O)C[C@@]21C)OC(=O)CCCCC
Size (nm): 48 nm

molecule: CCCCC/C=C\C/C=C\CCCCCCCC(=O)O[C@@H](C/C=C\CCCCCCCCOC(=O)CCC(=O)OCC(=O)[C@@]1(O)[C@H](C)C[C@H]2[C@@H]3CCC4=CC(=O)C=C[C@]4(C)[C@@]3(F)[C@@H](O)C[C@@]21C)CCCCCC
Size (nm): 46 nm

molecule: CCCCCCCCC(OC(=O)CCCCC)C(CCCCCCCC(=O)OCC(=O)[C@@]1(O)[C@H](C)C[C@H]2[C@@H]3CCC4=CC(=O)C=C[C@]4(C)[C@@]3(F)[C@@H](O)C[C@@]21C)OC(=O)CCCCC (stereo partly shown)
Size (nm): 42 nm

Attention now shifts to the item below.
Could you please provide reported Size (nm) for CCCCC/C=C\C/C=C\CCCCCCCC(=O)OC(CCCCCCCC)C(CCCCCCCC(=O)OCC(=O)[C@@]1(O)[C@H](C)C[C@H]2[C@@H]3CCC4=CC(=O)C=C[C@]4(C)[C@@]3(F)[C@@H](O)C[C@@]21C)OC(=O)CCCCCCC/C=C\C/C=C\CCCCC (stereo partly shown) ? Thanks!
38 nm

* * *

- assay procedure: Particle size and polydispersity of LNP containing pro-drug (dynamic light scattering)
- Type: physicochemical
- condition label: LNP containing 10 mol % conjugate; primary PC-lipid DMPC
readout kind: Particle Diameter (nm)
Give just the number in nm; leave the unit off.

Below, each entry is followed by its recorded Particle Diameter (nm) result.
smiles representation: CCCCCCCCCCCCCCCCCC(=O)O[C@@H](C/C=C\CCCCCCCCOC(=O)CCC(=O)OCC(=O)[C@@]1(O)[C@H](C)C[C@H]2[C@@H]3CCC4=CC(=O)C=C[C@]4(C)[C@@]3(F)[C@@H](O)C[C@@]21C)CCCCCC
Particle Diameter (nm): 61

smiles representation: CCCCCC[C@H](C/C=C\CCCCCCCCOC(=O)CCC(=O)OCC(=O)[C@@]1(O)[C@H](C)C[C@H]2[C@@H]3CCC4=CC(=O)C=C[C@]4(C)[C@@]3(F)[C@@H](O)C[C@@]21C)OC(=O)CCCCC
Particle Diameter (nm): 72

smiles representation: CCCCCCCCCCCC(=O)O[C@@H](C/C=C\CCCCCCCCOC(=O)CCC(=O)OCC(=O)[C@@]1(O)[C@H](C)C[C@H]2[C@@H]3CCC4=CC(=O)C=C[C@]4(C)[C@@]3(F)[C@@H](O)C[C@@]21C)CCCCCC
Particle Diameter (nm): 69

Query Particle Diameter (nm) for `CCCCCC[C@H](C/C=C\CCCCCCCCOC(=O)CCC(=O)OCC(=O)[C@@]1(O)[C@H](C)C[C@H]2[C@@H]3CCC4=CC(=O)C=C[C@]4(C)[C@@]3(F)[C@@H](O)C[C@@]21C)OC(C)=O`
68

* * *

Entries and their % Entrapment values follow.
- assay procedure: Encapsulation efficiency / incorporation of pro-drug in LNP
- Type: physicochemical
- condition label: LNP formulations containing pro-drugs (10 mol %, FIG. 6A)
Report as a plain number; the unit % is understood.

Reference set, count: 7
compound: CCCCC/C=C\C/C=C\CCCCCCCC(=O)O[C@@H](C/C=C\CCCCCCCC(=O)OCC(=O)[C@@]1(O)[C@H](C)C[C@H]2[C@@H]3CCC4=CC(=O)C=C[C@]4(C)[C@@]3(F)[C@@H](O)C[C@@]21C)CCCCCC [INT-D089]
readout kind: % Entrapment
val: 100
//
compound: CCCCCCCCCCCCCCCCCC(=O)O[C@@H](C/C=C\CCCCCCCCOC(=O)CCC(=O)OCC(=O)[C@@]1(O)[C@H](C)C[C@H]2[C@@H]3CCC4=CC(=O)C=C[C@]4(C)[C@@]3(F)[C@@H](O)C[C@@]21C)CCCCCC [INT-D050]
readout kind: % Entrapment
val: 90
//
compound: CCCCCC[C@H](C/C=C\CCCCCCCCOC(=O)CCC(=O)OCC(=O)[C@@]1(O)[C@H](C)C[C@H]2[C@@H]3CCC4=CC(=O)C=C[C@]4(C)[C@@]3(F)[C@@H](O)C[C@@]21C)OC(=O)CCCCC [INT-D034]
readout kind: % Entrapment
val: 99
//
compound: CCCCC/C=C\C/C=C\CCCCCCCC(=O)O[C@@H](C/C=C\CCCCCCCCOC(=O)CCC(=O)OCC(=O)[C@@]1(O)[C@H](C)C[C@H]2[C@@H]3CCC4=CC(=O)C=C[C@]4(C)[C@@]3(F)[C@@H](O)C[C@@]21C)CCCCCC [INT-D045]
readout kind: % Entrapment
val: 100
//
compound: CCCCCCCCCCCC(=O)O[C@@H](C/C=C\CCCCCCCCOC(=O)CCC(=O)OCC(=O)[C@@]1(O)[C@H](C)C[C@H]2[C@@H]3CCC4=CC(=O)C=C[C@]4(C)[C@@]3(F)[C@@H](O)C[C@@]21C)CCCCCC [INT-D046]
readout kind: % Entrapment
val: 100
//
compound: CCCCCCCC/C=C\CCCCCCCC(=O)O[C@@H](C/C=C\CCCCCCCCOC(=O)CCC(=O)OCC(=O)[C@@]1(O)[C@H](C)C[C@H]2[C@@H]3CCC4=CC(=O)C=C[C@]4(C)[C@@]3(F)[C@@H](O)C[C@@]21C)CCCCCC [INT-D035]
readout kind: % Entrapment
val: 99
//
compound: CCCCCCCCC(OC(=O)CCCCC)C(CCCCCCCC(=O)OCC(=O)[C@@]1(O)[C@H](C)C[C@H]2[C@@H]3CCC4=CC(=O)C=C[C@]4(C)[C@@]3(F)[C@@H](O)C[C@@]21C)OC(=O)CCCCC (some centres unmarked) [INT-D085]
readout kind: % Entrapment
val: 100

Assign % Entrapment to the following record: CCCCCC[C@H](C/C=C\CCCCCCCCOC(=O)CCC(=O)OCC(=O)[C@@]1(O)[C@H](C)C[C@H]2[C@@H]3CCC4=CC(=O)C=C[C@]4(C)[C@@]3(F)[C@@H](O)C[C@@]21C)OC(C)=O [INT-D047]
100

* * *

- assay procedure: Particle size and polydispersity of LNP containing pro-drug (dynamic light scattering)
- Format: physicochemical
- condition label: LNP containing 10 mol % conjugate; primary PC-lipid DMPC
readout kind: Polydispersity index (PDI)
Number only, please.

Read off the recorded Polydispersity index (PDI) for CCCCC/C=C\C/C=C\CCCCCCCC(=O)O[C@@H](C/C=C\CCCCCCCCOC(=O)CCC(=O)OCC(=O)[C@@]1(O)[C@H](C)C[C@H]2[C@@H]3CCC4=CC(=O)C=C[C@]4(C)[C@@]3(F)[C@@H](O)C[C@@]21C)CCCCCC [INT-D045]
0.03

Output measured Polydispersity index (PDI) for this item: CCCCCCCC/C=C\CCCCCCCC(=O)O[C@@H](C/C=C\CCCCCCCCOC(=O)CCC(=O)OCC(=O)[C@@]1(O)[C@H](C)C[C@H]2[C@@H]3CCC4=CC(=O)C=C[C@]4(C)[C@@]3(F)[C@@H](O)C[C@@]21C)CCCCCC [INT-D035]
0.03

Output measured Polydispersity index (PDI) for this item: CCCCC/C=C\C/C=C\C/C=C\C/C=C\CCCC(=O)O[C@@H](C/C=C\CCCCCCCCOC(=O)CCC(=O)OCC(=O)[C@@]1(O)[C@H](C)C[C@H]2[C@@H]3CCC4=CC(=O)C=C[C@]4(C)[C@@]3(F)[C@@H](O)C[C@@]21C)CCCCCC [INT-D051]
0.03

For the compound CCCCCCCCCCCCCCCCCC(=O)O[C@@H](C/C=C\CCCCCCCCOC(=O)CCC(=O)OCC(=O)[C@@]1(O)[C@H](C)C[C@H]2[C@@H]3CCC4=CC(=O)C=C[C@]4(C)[C@@]3(F)[C@@H](O)C[C@@]21C)CCCCCC [INT-D050] , report Polydispersity index (PDI).
0.04

* * *

- assay procedure: Particle size and polydispersity of LNP containing pro-drug (dynamic light scattering)
- Assay type: physicochemical
- condition label: LNP; pro-drug concentration 80 %
- Procedure: LNPs were prepared by dissolving 1,2-Distearoyl-sn-glycero-3-phosphocholine (DSPC) or 1,2-dimyristoyl-sn-glycero-3-phosphocholine (DMPC), cholesterol and 1,2-Distearoyl-sn-glycero-3-phosphoethanolamine-Poly(ethylene glycol) (PEG-DSPE) in ethanol. […] The physiochemical properties of the LNPs prepared as described above were subsequently characterized. […] Lipid concentrations were determined by measuring total cholesterol using the Cholesterol E enzymatic assay kit from Wako Chemicals USA (Richmond, Va.). […]
readout kind: PdI
// keep it numeric: no unit symbol after the value

smiles representation: CC/C=C\C/C=C\C/C=C\CCCCCCCC(=O)O[C@@H](C/C=C\CCCCCCCCOC(=O)CCC(=O)OCC(=O)[C@@]1(O)[C@H](C)C[C@H]2[C@@H]3CCC4=CC(=O)C=C[C@]4(C)[C@@]3(F)[C@@H](O)C[C@@]21C)CCCCCC
val: 0.03

smiles representation: CCCCC/C=C\C/C=C\CCCCCCCC(=O)O[C@@H](C/C=C\CCCCCCCCOC(=O)CCC(=O)OCC(=O)[C@@]1(O)[C@H](C)C[C@H]2[C@@H]3CCC4=CC(=O)C=C[C@]4(C)[C@@]3(F)[C@@H](O)C[C@@]21C)CCCCCC
val: 0.033

smiles representation: CCCCCC[C@H](C/C=C\CCCCCCCCOC(=O)CCC(=O)OCC(=O)[C@@]1(O)[C@H](C)C[C@H]2[C@@H]3CCC4=CC(=O)C=C[C@]4(C)[C@@]3(F)[C@@H](O)C[C@@]21C)OC(=O)CCCCC
val: 0.025

Lab note: next compound to report on.
Give recorded PdI. `CCCCCCCCCCCCCCCCCC(=O)O[C@@H](C/C=C\CCCCCCCCOC(=O)CCC(=O)OCC(=O)[C@@]1(O)[C@H](C)C[C@H]2[C@@H]3CCC4=CC(=O)C=C[C@]4(C)[C@@]3(F)[C@@H](O)C[C@@]21C)CCCCCC`
0.01
